biological target: UniProt:A0A0B6RRK0
Sequence (A0A0B6RRK0 entry or part of it): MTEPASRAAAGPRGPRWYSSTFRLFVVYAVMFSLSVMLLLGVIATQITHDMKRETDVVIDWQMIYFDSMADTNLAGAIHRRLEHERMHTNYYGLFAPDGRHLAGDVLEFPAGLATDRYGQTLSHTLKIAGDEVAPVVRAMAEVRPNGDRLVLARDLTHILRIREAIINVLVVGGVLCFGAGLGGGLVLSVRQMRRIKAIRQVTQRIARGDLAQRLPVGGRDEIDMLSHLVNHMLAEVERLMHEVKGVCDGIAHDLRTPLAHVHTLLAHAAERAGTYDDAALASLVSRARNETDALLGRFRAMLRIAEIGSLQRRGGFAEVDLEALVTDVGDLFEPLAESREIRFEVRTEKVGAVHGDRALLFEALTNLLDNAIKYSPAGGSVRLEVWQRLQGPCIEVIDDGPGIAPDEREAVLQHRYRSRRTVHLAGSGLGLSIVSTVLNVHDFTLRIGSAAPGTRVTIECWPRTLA
pKd: −log10 of the molar value.

{"SMI": "Nc1nnc(S)s1", "STUDY SYSTEM": "UniProt:A0A0B6RRK0", "pKd": 6.14}

These entries and their values trace back to paper PMC11197535.
